- Tested on: BT-20
- experiment.notes: Cytotoxicity against human estrogen receptor-deficient BT20 cells after 24 hrs by MTT assay
- Format: functional, cell-based
- settings: BT-20, 24 h
property: pIC50
Answer as the number alone; pIC50 is minus log10 of concentration in mol/L.

pIC50 recorded for this compound, `O=C(/C=C/c1ccc(O)c(O)c1O)c1ccccc1O` , is 4.21

# pIC50 (compound: `O=C(/C=C/c1ccc(F)c(F)c1)c1ccccc1O` ) is 4.48

// pIC50 lookup, compound = `O=C(/C=C/c1ccc(F)c(F)c1F)c1ccccc1O` , result: 4.25

Short answer for `O=C(/C=C/c1ccc(F)cc1F)c1ccccc1O` : pIC50 was 4.58

Value of measured pIC50 for the entry `O=C(/C=C/c1ccc(O)cc1O)c1ccccc1O` : 4.28

`O=C(/C=C/c1ccc(O)c(O)c1)c1ccccc1O` yielded pIC50 of 4.19

###

- experiment.notes: Lipophilicity, log P of the compound
- Type: physicochemical
- settings: octanol/water
property: logP
The response must contain the number and no unit.

Entry under test: `O=C(/C=C/c1ccc(O)c(O)c1O)c1ccccc1O` . Its logP was 2.03

Given item `O=C(/C=C/c1ccc(O)cc1O)c1ccccc1O` , the value recorded as its logP is 2.42

So, `O=C(/C=C/c1ccccc1)c1ccccc1` ? Its logP was 3.2

Recorded result, `O=C(/C=C/c1ccc(O)c(O)c1)c1ccccc1O` , logP: 2.42

For record `O=C(/C=C/c1ccc(F)c(F)c1)c1ccccc1O` the listed logP is 3.51

// logP lookup, molecule = `O=C(/C=C/c1ccc(F)c(F)c1F)c1ccccc1O` , result: 3.67

Sample `O=C(/C=C/c1ccc(F)cc1F)c1ccccc1O` ; logP observed: 3.51
